Molecular target: D(3) dopamine receptor (Homo sapiens)
Sequence (P35462 whole entry): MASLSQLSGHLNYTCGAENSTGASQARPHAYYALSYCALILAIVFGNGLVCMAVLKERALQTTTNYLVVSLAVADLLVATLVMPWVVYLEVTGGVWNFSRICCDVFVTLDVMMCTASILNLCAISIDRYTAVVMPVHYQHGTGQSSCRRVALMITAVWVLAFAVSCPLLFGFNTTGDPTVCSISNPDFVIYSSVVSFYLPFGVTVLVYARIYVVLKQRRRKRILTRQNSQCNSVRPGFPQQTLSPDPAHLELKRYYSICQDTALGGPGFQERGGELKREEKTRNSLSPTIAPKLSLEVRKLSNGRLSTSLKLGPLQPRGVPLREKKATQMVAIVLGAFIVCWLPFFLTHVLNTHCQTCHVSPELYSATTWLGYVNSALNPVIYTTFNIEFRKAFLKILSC
pKi: −log10 of the molar value.
Answer criterion not met if pKi is under 7, and criterion met if it is 7 or more.

Solved entries:
[[record]]
compound = "OC1(c2ccc(Cl)cc2)CC2CCC(C1)N2CCc1c[nH]c2ccccc12 (stereo unspecified)"
group = "criterion met"

[[record]]
compound = "Clc1ccc(N2CC3CC2CN3Cc2c[nH]c3ncccc23)cc1 (stereo unspecified)"
group = "criterion met"

[[record]]
compound = "OC1(c2ccc(Cl)cc2)CCN(CCc2c[nH]c3ccccc23)C1 (stereo unspecified)"
group = "criterion not met"

[[record]]
compound = "O[C@]1(c2ccc(Cl)cc2)C[C@H]2CC[C@@H](C1)N2Cc1c[nH]c2ccccc12"
group = "criterion met"

[[record]]
compound = "O=C(CN1C2CCC1CC(O)(c1ccc(Cl)cc1)C2)c1ccc(F)cc1 (stereo unspecified)"
group = "criterion not met"


Q: Is the recorded value of pKi equal to or greater than 7 for this compound? O=C(CCCN1CC2CC1N(c1ccc(Cl)cc1)C2)c1ccc(F)cc1 (stereo unspecified)
Result: criterion not met
